system name: human inducible phospho-fructokinase bisphosphatase isoform 3, PFKFB3 (human), Q16875
Sequence (Q16875 whole entry, canonical isoform): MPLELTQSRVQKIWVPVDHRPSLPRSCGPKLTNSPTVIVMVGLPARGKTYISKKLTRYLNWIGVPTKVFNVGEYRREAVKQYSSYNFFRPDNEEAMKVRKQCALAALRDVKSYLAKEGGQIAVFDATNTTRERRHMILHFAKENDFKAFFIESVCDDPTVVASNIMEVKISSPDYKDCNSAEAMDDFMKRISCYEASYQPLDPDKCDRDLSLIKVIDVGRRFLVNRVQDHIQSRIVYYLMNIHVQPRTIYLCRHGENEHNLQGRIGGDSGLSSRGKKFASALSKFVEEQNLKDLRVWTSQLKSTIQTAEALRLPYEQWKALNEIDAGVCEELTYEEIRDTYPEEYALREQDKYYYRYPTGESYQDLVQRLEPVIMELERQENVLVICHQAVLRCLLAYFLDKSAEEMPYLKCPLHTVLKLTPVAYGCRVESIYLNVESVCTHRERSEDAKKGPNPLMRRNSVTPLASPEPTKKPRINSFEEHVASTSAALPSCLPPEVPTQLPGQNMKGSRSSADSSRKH
assay info: MST; compound in MST buffer mixed 1:1 with 100 nM RED-NHS labeled recombinant PFKFB3, incubated 20 min at room temperature; Nanotemper
reported endpoint: pKd
Keep it numeric: pKd is minus log10 of the concentration in mol/L.

Supply recorded pKd for YSGFLT (modifications not checked) [compound 4] here.
4.74

Supply recorded pKd for SFLLR (modifications not checked) [compound 5] here.
4.36
